biological target: human Nav1.8 (Homo sapiens (Human)); test: E-VIPR optical membrane potential assay with electrical stimulation; conditions: HEK cells expressing human Nav1.8
Measured metric: IC50 (nM)

Molecule | Measure unit | Observed result
Cc1cc(C)c(C)c(Oc2ccc(C(F)(F)F)cc2C(=O)Nc2cc[nH]c(=O)c2)c1 [Compound 91] | nM | 420

1. Cc1ccc(Oc2cc(C(F)(F)F)ccc2C(=O)Nc2cc[nH]c(=O)c2)cc1 [Compound 12]
2. COc1ccc(Oc2cc(C(F)(F)F)ccc2C(=O)Nc2cc[nH]c(=O)c2)c(F)c1 [Compound 84]
Query string: Between 1 and 2 , which one shows the smaller IC50 number? Lab note: record the label of whichever item you select.
Result string: 2
(2: 46 nM, 1: 106 nM)

---

biological target: human Nav1.8 (Homo sapiens (Human), UniProt Q9Y5Y9); experiment: E-VIPR optical membrane potential assay with electrical stimulation; conditions: HEK cells expressing human Nav1.8
Sequence (Q9Y5Y9 whole entry): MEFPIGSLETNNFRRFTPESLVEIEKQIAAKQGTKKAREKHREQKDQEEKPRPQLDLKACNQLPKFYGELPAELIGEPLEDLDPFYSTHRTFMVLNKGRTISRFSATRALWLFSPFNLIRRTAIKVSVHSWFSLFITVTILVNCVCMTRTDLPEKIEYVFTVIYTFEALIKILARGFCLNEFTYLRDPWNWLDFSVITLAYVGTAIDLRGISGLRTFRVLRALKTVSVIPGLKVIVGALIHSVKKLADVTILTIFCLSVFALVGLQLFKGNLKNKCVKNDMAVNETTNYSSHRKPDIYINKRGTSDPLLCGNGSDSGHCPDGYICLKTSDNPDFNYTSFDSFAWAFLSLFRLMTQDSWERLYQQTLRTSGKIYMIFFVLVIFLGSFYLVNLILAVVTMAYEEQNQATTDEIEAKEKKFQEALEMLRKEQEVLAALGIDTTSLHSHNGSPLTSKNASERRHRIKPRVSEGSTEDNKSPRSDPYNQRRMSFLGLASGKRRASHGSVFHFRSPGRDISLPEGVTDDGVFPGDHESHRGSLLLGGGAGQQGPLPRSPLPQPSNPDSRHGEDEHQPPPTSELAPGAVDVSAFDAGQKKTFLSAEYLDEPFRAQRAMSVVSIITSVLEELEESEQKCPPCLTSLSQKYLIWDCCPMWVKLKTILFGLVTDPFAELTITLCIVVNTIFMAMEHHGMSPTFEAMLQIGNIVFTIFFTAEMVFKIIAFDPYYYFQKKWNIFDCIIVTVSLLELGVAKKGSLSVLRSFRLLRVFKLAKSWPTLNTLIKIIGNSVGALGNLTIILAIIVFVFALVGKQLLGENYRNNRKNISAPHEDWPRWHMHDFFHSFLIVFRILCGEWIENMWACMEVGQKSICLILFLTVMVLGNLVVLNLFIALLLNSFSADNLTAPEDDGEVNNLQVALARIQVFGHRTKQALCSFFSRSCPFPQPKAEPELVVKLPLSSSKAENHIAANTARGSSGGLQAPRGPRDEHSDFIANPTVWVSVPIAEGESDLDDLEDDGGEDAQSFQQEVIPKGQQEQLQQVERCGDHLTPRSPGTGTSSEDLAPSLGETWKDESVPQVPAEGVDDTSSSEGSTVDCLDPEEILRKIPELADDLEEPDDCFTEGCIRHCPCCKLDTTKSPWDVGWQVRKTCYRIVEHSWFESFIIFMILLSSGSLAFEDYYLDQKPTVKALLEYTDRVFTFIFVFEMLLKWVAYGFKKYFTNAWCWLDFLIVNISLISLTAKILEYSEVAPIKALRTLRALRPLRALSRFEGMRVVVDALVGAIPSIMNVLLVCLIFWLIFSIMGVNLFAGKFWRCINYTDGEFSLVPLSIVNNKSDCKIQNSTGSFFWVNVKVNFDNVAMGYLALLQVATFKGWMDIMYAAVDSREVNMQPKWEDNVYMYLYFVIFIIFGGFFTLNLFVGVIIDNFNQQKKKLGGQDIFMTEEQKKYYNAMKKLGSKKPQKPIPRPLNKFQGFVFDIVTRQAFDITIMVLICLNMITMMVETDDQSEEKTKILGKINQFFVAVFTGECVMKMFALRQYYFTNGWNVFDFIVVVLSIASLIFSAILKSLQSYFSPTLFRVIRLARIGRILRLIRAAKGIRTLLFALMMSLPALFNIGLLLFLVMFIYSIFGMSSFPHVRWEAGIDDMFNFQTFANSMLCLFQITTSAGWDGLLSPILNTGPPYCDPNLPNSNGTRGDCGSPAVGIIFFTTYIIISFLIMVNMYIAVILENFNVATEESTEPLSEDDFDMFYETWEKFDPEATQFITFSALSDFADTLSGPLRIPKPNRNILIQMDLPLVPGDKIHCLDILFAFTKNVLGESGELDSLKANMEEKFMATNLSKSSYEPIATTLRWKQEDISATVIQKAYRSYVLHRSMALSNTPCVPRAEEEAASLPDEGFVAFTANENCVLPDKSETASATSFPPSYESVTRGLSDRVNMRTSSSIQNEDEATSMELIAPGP
Measured metric: IC50 (nM)

For orientation, consider the following solved cases.
Molecule | System name | IC50 [nM]
Cc1cc(Cl)ccc1Oc1ccc(C(F)(F)F)cc1C(=O)Nc1cc[nH]c(=O)c1 [Compound 50] | human Nav1.8 (Homo sapiens (Human), UniProt Q9Y5Y9) | 19
O=C(Nc1cc[nH]c(=O)c1)c1cc(C(F)(F)F)ccc1Oc1ccc(C(F)(F)F)cc1 [Compound 74] | human Nav1.8 (Homo sapiens (Human), UniProt Q9Y5Y9) | 5180
O=C(Nc1cc[nH]c(=O)c1)c1cc(C(F)(F)F)ccc1Oc1ccc(F)cc1F [Compound 24] | human Nav1.8 (Homo sapiens (Human), UniProt Q9Y5Y9) | 58
O=C(Nc1cc[nH]c(=O)c1)c1ccc(C(F)(F)F)cc1Oc1ccc(Cl)cc1 [Compound 78] | human Nav1.8 (Homo sapiens (Human), UniProt Q9Y5Y9) | 31
O=C(Nc1cc[nH]c(=O)c1)c1ccc(C(F)(F)F)cc1OCCCC(F)(F)F [Compound 123] | human Nav1.8 (Homo sapiens (Human), UniProt Q9Y5Y9) | 355
O=C(Nc1cc[nH]c(=O)c1)c1c(Oc2ccccc2)cc(C(F)(F)F)cc1C(F)(F)F [Compound 156] | human Nav1.8 (Homo sapiens (Human), UniProt Q9Y5Y9) | 52

I. O=C(Nc1cc[nH]c(=O)c1)c1cc(C(F)(F)F)ccc1Oc1ccc(F)c(F)c1F [Compound 90]
II. COc1cc(F)ccc1Oc1cc(C(F)(F)C(F)(F)F)ccc1C(=O)Nc1cc[nH]c(=O)c1 [Compound 111]
Query string: IC50 comparison. Which is larger, I or II ? Kindly give the label for the entry you pick.
Result string: I
(I: 26 nM, II: 3 nM)

---

Experiment: Microsomal stability assay, rat liver microsomes (RLM)
Format: in vitro ADME
Settings: rat liver microsomes 0.5 mg/mL, 1 uM substrate, 2 mM NADPH, 37° C., referenced against time zero control
Method: Microsomal Stability Assay. Compounds were incubated at 37° C. and shaken for 30 minutes in a phosphate buffered solution with either rat or human liver microsomes and the cofactor NADPH. A time zero control was similarly prepared, however with NADPH excluded. […] Following a centrifugation step, aliquots from the quenched incubations were further diluted with 4 volume equivalents of a 50% aqueous methanol solution and then subjected to LC/MS/MS analysis for quantitation of parent compound. […]
Measured metric: RLM (% remaining @ 30 minutes) (%)

Substance smiles | RLM (% remaining @ 30 minutes) [%]
COCCOc1ccc(Oc2cc(C(F)(F)F)ccc2C(=O)Nc2cc[nH]c(=O)c2)cc1 | 86
Cc1cc(F)ccc1Oc1ccc(Cl)cc1C(=O)Nc1cc[nH]c(=O)c1 | 72
O=C(Nc1cc[nH]c(=O)c1)c1ccc(C(F)(F)F)cc1Oc1ccc(F)cc1CO | 102
O=C(Nc1cc[nH]c(=O)c1)c1ccc(C(F)(F)F)cc1Oc1ccc(OC(F)(F)F)cc1 | 100
